Consider the following molecules; for each one, report its T/C.
test system: P388 leukemia ip, CD2F1 mice, survival T/C; assay: NCI In Vivo Anticancer Drug Screen. Data for tumor model P388 Leukemia (intraperitoneal) in CD2F1 (CDF1) mice; conditions: endpoint: median survival time; dose: 400.0 mg/kg/injection; schedule: Q04DX002 (ip); vehicle: saline; higher = longer survival
Toxic doses and inconclusive results are not listed.

Noted for C[Se](=C(C(=O)c1ccccc1)C(=O)c1ccccc1)c1ccccc1 (stereo unspecified) : its T/C reads 98 % of control

Reported T/C ( NC(c1cccc([N+](=O)[O-])c1)S(=O)(=O)O (stereo unspecified) ) = 105 % of control

Kindly note the recorded T/C for CC(=O)Nc1ccc(N)cc1C , which is 97 % of control

molecule CCC1(CC)C(=O)N(C)P(=O)(Oc2ccccc2)N(C)C1=O , T/C observed: 101 % of control

Note to self: T/C recorded for COC(=O)C1(C)N=C1N(C)C (stereo unspecified) was 93 % of control

The molecule identified as CCc1cc(C2C(=O)c3ccccc3C2=O)cc(CC)c1O registered its T/C at 110 % of control

* * *

Provide the reported T/C of each item.
test system: P388 leukemia ip, CD2F1 mice, survival T/C; test: NCI In Vivo Anticancer Drug Screen. Data for tumor model P388 Leukemia (intraperitoneal) in CD2F1 (CDF1) mice; details: endpoint: median survival time; dose: 12.5 mg/kg/injection; schedule: Q01DX009 (ip); vehicle: saline with Tween-80; higher = longer survival
Toxic doses and inconclusive results are not listed.

# T/C of CCCCCCCC[N+](C)(C)CCSCC[N+](C)(C)CCCCCCCC = 114 % of control

Noted for Cn1c(=O)c2[nH]c(C3CCCC3)nc2n(C)c1=O : its T/C reads 103 % of control

Measured T/C of O=C(OCC1C=C(OC(=O)c2ccccc2)C(=O)C(OC(=O)c2ccccc2)O1)c1ccccc1 (stereo not drawn) : 94 % of control

Data point: CC(C(=O)N1c2ccccc2Sc2ccccc21)[N+](C)(C)C (stereo not drawn) ; T/C = 110 % of control

The molecule C=CCOc1ccncc1 showed T/C equal to 100 % of control

Notebook: O=P(c1ccccc1)(c1ccccc1)c1ccccc1.O=P(c1ccccc1)(c1ccccc1)c1ccccc1.O=P(c1ccccc1)(c1ccccc1)c1ccccc1.O=P(c1ccccc1)(c1ccccc1)c1ccccc1.[O-][Cl+3]([O-])([O-])O.[O]=[U+2]=[O] , T/C read as 90 % of control

// sample COC1/C=C/OC2(C)Oc3c(C)c(O)c4c(O)c(c(/C=N/NC5C6CC7CC(C6)CC5C7)c(O)c4c3C2=O)NC(=O)/C(C)=C/C=C/C(C)C(O)C(C)C(O)C(C)C(OC(C)=O)C1C (stereo not drawn) , its T/C was 106 % of control

T/C for CN1CCC(CN2c3ccccc3Sc3ccccc32)C1 (stereo not drawn) is 104 % of control

* * *

Task for the reader: assign each of the following compounds its reported T/C.
system: P388 leukemia ip, CD2F1 mice, survival T/C; test: NCI In Vivo Anticancer Drug Screen. Data for tumor model P388 Leukemia (intraperitoneal) in CD2F1 (CDF1) mice; details: endpoint: median survival time; dose: 12.5 mg/kg/injection; schedule: Q01DX009 (ip); vehicle: saline; higher = longer survival
Inconclusive results and toxic doses are left out.

T/C for NC1CC1N (stereo unspecified) is 101 % of control

Recorded T/C (compound O=NNc1ccc(Sc2ccc(NN=O)cn2)nc1 ): 114 % of control

Query NS(=O)(=O)C1CCCCC1 yields T/C of 106 % of control

Measured T/C of CCC1(C)N=C(N)Nc2nc3cc(C)c(C)cc3n21 (stereo unspecified) : 92 % of control

GET /value?item= S=c1[nH]c2ccccc2[nH]1 &field=T/C returns 102 % of control

// field: T/C; key: NCC(=O)O.[Cl-].[Cl-].[Cl-].[Cl-].[Pt+2] ; value = 124 % of control
